# Assayed target: soluble guanylate cyclase (sGC) (Homo sapiens (Human), UniProt Q02108+Q02153)
# Sequence (Q02153 whole entry): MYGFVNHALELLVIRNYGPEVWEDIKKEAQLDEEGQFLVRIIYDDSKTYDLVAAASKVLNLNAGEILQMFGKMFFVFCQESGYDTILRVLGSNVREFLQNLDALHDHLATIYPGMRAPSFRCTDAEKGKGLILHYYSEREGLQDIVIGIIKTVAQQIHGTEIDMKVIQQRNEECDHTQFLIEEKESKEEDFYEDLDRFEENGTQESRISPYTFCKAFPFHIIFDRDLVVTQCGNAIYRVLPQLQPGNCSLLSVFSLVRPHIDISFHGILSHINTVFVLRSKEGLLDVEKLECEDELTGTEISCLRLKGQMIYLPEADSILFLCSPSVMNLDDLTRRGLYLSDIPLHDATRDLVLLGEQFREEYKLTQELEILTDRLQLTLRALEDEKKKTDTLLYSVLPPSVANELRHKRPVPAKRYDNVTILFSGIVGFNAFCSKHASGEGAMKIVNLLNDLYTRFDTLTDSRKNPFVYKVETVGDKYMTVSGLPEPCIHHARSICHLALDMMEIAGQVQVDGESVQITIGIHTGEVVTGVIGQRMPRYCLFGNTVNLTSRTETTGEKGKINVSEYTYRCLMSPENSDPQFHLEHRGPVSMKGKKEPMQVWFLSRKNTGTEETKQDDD
# Sequence (Q02108 whole entry): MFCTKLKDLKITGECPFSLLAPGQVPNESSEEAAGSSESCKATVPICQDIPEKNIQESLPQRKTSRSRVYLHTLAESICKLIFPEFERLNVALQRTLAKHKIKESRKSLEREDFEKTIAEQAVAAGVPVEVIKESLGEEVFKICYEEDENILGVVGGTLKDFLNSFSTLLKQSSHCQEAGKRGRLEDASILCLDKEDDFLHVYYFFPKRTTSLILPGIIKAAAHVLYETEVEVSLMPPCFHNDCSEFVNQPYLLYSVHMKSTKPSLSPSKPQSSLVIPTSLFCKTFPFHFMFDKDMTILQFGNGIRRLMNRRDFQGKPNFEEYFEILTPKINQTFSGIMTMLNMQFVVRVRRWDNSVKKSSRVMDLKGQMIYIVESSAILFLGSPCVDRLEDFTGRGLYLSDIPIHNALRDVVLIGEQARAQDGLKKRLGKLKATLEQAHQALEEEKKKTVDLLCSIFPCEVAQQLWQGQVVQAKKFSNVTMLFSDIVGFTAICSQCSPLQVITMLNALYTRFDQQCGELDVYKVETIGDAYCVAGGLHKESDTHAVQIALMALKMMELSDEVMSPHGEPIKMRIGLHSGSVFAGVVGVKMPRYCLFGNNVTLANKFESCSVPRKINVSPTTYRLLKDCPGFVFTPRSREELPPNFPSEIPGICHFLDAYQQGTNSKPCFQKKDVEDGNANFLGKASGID
# Method description: sGC-HEK-cGMP assay run with SNP incubation (HEK WC assay)
# Format: cell-based
# Experimental context: read-out: HEK WC Assay (% Emax at 30 μM with 10 uM SNP)
Measured Emax, listed per entry.

Molecule | Assayed target | Emax
CN(C)/C=N/c1cnc(-c2cc(-c3ccon3)n(Cc3ccccc3F)n2)nc1 [Compound I-249] | soluble guanylate cyclase (sGC) (Homo sapiens (Human), UniProt Q02108+Q02153) | 60 to 80%
c1cnc(-c2cc(-c3ccon3)n(Cc3cscn3)n2)nc1 [Compound I-204] | soluble guanylate cyclase (sGC) (Homo sapiens (Human), UniProt Q02108+Q02153) | 0 to 10%
Fc1ccccc1Cn1nc(-c2ccccn2)cc1-c1cnco1 [Compound I-285] | soluble guanylate cyclase (sGC) (Homo sapiens (Human), UniProt Q02108+Q02153) | 20 to 40%
[2H]C([2H])([2H])C(=O)Nc1cnc(-c2cc(-c3ccon3)n(Cc3ccccc3F)n2)nc1N [Compound I-263] | soluble guanylate cyclase (sGC) (Homo sapiens (Human), UniProt Q02108+Q02153) | 100 to 120%

* * *

# Assayed target: soluble guanylate cyclase (sGC) (Homo sapiens (Human), UniProt Q02108+Q02153)
# Method description: sGC-HEK-cGMP assay run with SNP incubation (HEK WC assay)
# Type: cell-based
# Experimental context: read-out: HEK WC Assay (% Emax at 10 μM with 10 uM SNP)

Compound | Emax
Nc1ccnc(-c2cc(-c3cnco3)n(Cc3ccccc3F)n2)n1 [Compound I-296] | 20 to 40%
Nc1nc(-c2cc(-c3ccon3)n(Cc3ccccc3F)n2)ncc1NC(=O)CN1C(=O)c2ccccc2C1=O [Compound I-212] | 60 to 80%
CC1(C(=O)Nc2cnc(-c3cc(-c4ccon4)n(Cc4ccccc4F)n3)nc2N)CC1 [Compound I-206] | 100 to 120%
Nc1cc(O)nc(-c2cc(-c3ccon3)n(Cc3ccccc3F)n2)n1 [Compound I-154] | 0 to 10%
CN(C)/C=N/c1cnc(-c2cc(-c3ccon3)n(Cc3ccccc3F)n2)nc1 [Compound I-249] | 40 to 60%
Cc1cc(Cl)nc(-c2cc(-c3ccon3)n(Cc3ccccc3F)n2)n1 [Compound I-299] | 60 to 80%
O=c1[nH]c2cnc(-c3cc(-c4ccon4)n(Cc4ccccc4F)n3)nc2[nH]1 [Compound I-281] | 60 to 80%
Fc1ccccc1Cn1nc(-c2ncccn2)cc1C1=NCCO1 [Compound I-290] | 10 to 20%

* * *

# Assayed target: soluble guanylate cyclase (sGC) (Homo sapiens (Human), UniProt Q02108+Q02153)
# Method description: sGC-HEK-cGMP assay run with SNP incubation (HEK WC assay)
# Type: cell-based
# Experimental context: in the presence of 10 uM SNP
# Experimental: Human embryonic kidney cells (HEK293), endogenously expressing soluble guanylate cyclase (sGC), were used to evaluate the activity of test compounds. Compounds stimulating the sGC receptor should cause an increase in the intracellular concentration of cGMP. […] EC50 values were calculated from concentration-response curves generated with GraphPad Prism Software.

Compound | EC50
CC(C)(C)OC(=O)n1c(=O)[nH]c2nc(-c3cc(-c4ccon4)n(Cc4ccccc4F)n3)ncc21 | 40 to 60 µM
CC(C)(C)[S+]([O-])Nc1cnc(-c2cc(-c3ccon3)n(Cc3ccccc3F)n2)nc1N[S+]([O-])C(C)(C)C (stereo not shown) | 100 to 300 µM
Nc1nc(-c2cc(-c3ccon3)n(Cc3ccccc3F)n2)ncc1NC(=O)[C@@H]1CCCN1C(=O)C(F)(F)F | < 20 µM
N#CC1(C(=O)Nc2cnc(-c3cc(-c4ccon4)n(Cc4ccccc4F)n3)nc2N)CC1 | < 20 µM
CC(=O)Nc1cnc(-c2cc(-c3ncco3)n(Cc3ccccc3F)n2)nc1N | < 20 µM
O=c1[nH]c2cnc(-c3cc(-c4ccon4)n(Cc4ccccc4F)n3)nc2[nH]1 | 20 to 40 µM
Oc1nc(-c2cc(-c3ccon3)n(Cc3ccccc3F)n2)ncc1Br | < 20 µM

Cited source for all entries: patent US10189809B2
